B1: TPR t1 (parent)
chain: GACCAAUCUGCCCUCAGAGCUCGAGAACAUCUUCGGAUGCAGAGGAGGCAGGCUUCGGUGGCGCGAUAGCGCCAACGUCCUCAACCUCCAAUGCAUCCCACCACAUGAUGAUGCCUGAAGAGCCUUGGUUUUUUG

Variants of: B1
Assay Info: polymerase ribozyme fitness, log enrichment relative to wild type (log ratio); higher = more active; in vitro selection for triplet polymerase activity
polymerase ribozyme fitness (log ratio) values for the variants below.
Reported Property: polymerase ribozyme fitness (log ratio)

- Seq: "GACCAAUCUGCCCUCAGAGCUCGAGAACUUCUUCGGAUGCAGAGGAGGCAGGCUUCGGUGGCGCGAUAGCGCCAUCGUCCUCGACCUCCAAUGCAUCCCACCACAUGAUGAGGCCUGAAGAGCCUUGGUUUUCUG [A29U A75U A83G U112G U133C]"
  Recorded Value: -2.19
- Seq: "GACCAAUGUGCCCUCAGAGCUCGAGAACAUCUUCGGAUGCAGAGGAGGCAGGCUUCGGUGGCGCGAUAGCGCCAACGUCCUCAACCUCCAAUGCAUCCCACCACAUGAUGAUGUCUGAAGAGACUUGGUUUUUUG [C8G C114U C123A]"
  Recorded Value: -0.55
- Seq: "GACCAAUCUGCCCUCAGAGCUCUAGGACAUCUUCGGAUGCAGAGGAGGCAGGCUUCGGUGGCUCGAUAGCGCCAACGUCCUGAACCUCCAAUGCAUCCCACCACAUGAUGAUGCCUGAAGAGCCUUGGUUUUAUG [G23U A26G G63U C82G U133A]"
  Recorded Value: -7.09
- Seq: "GACCAAUCUGCCCUCAGAGUUCGAGAACAUCUUCGGAUGCAGAGGAGGCAGGGUUCGGUGGCGCGAUAGCGCCAACGUCCUCAACCUCCAAUGCAUCCCACCACAUGAUGAUGCCUGAAGAGCCUUGGUUUUUUG [C20U C53G]"
  Recorded Value: -1.28
- Seq: "GACCAAUCUGCCCUCAGAGCUCGAGAACAUCUUCGGAUGCAGAGGAGGCAGGCUUCGGUGGCGCGAUAGCGCCAACGUCCUCAAGCUCCAAUGCAUCCCACCACAUGAUAAUGCCUGAAGAGCCUCGGUUUUUUG [C85G G110A U126C]"
  Recorded Value: -2.99
- Seq: "GACCACUCUGCCCUCAGAGCUCGAGAACAUCUUCGGAUGCAGAGAAGGCAGGCUUCGGUGGCGCGAUAGCGCCAACGUCCUCAACCUCCAAUGCAUCCCACCACAUGAUGAUGCCUGAAGAGCCUUGGUUUUUUG [A6C G45A]"
  Recorded Value: -2.73
- Seq: "GACCAAUCUGCCCUCAGAGCUCGAGAACUUCUUCGGUUGUAGAGGAGGCAGGCUUCGGUGGCGCGAUAGCCCCAACGUCCUCAACCUCCAAUGCAUCCCACCACAUGAUGAUGCCUGAAGAGCCUUGGUUUUUUG [A29U A37U C40U G71C]"
  Recorded Value: -2.78
- Seq: "GACCAAUCUGCCCUCAGAGCUCGAGAACAUCUUCGGAUGCAGAGGAUGCAGGCUUCGGUGCCGCGAUAGCGCCAACGUCCUCAACCUCCAAUGCAUCCCACCACAUGAUGAUGCCUGAAGAGCCUGGGUUUUUUG [G47U G61C U126G]"
  Recorded Value: -4.45
- Seq: "GACCAAUCUCCCCUCAGAGCUCGAGAACAUCUUCGGAUGCAGAGGAGGCAGGCUUCGGUGGCGCGAUAGCGCCAACUUCCUCAACCUCCAAUGCAUCCCACCACAUGAUGUUGCCUGAAGAGCCUUGGUUUUUUG [G10C G77U A111U]"
  Recorded Value: -4.57
- Seq: "GACCAAUCUGCCCUCAGAGCUCGAGAACAUCUUCGGAUGCAGAGGAGGCAGGCUUCGGUGGCGCGAUAGCGCUAACGUCCUCAACCUCCAAUGCAUCCCACCACAUGAUGAUGCCUGAAGAGCCUUGGGUUUUUG [C73U U129G]"
  Recorded Value: -0.782
- Seq: "GACCAAUCUGCCCUCAGAGCUCGAGAACAUCUUCGGAUACAGAGGAGACAGGCUUGGGUGGCGCGAUAUCGCCAACGUCCUCAACCUCCAAUGCAUCCCACCACCUGAUGAUGCCUGAAGAGCCUUGGUUUUUUG [G39A G48A C56G G69U A105C]"
  Recorded Value: -2.52
- Seq: "GACCAAUCUGCCCUCAGAGCUCGAGAACAUCUUCGGUUGCAGAGGAGGCAGGCUUCGGUGGCGCGAUAGCGCCAACGUCCUCAACCUCCAAUGCAUUCCACCACAUGAUGAUGCCUGAAGAGCCUUGGUUUUUUG [A37U C97U]"
  Recorded Value: -2.15
- Seq: "GACCAAUCUGCCAUCAGAGCUCGAGAACAUCUUCGGAUGCAGAGGAGGCAGGCUUCGGUGGCGCGAUAGCGCCAACGUCCUCAACCUCCAAUGCAUCCCACCACAAGAUAAUGCCUGAAGAGCCUUGGUUUUUUG [C13A U106A G110A]"
  Recorded Value: -2.53
- Seq: "GACCAAUCUGCCCUCAGAGCUCGAGAACAUCUUCGGAUGCAGAGGAGGCAGGCUUCGGUGGCGCGAUGGCGCCAACGUCCUCAACCUCCAAUGCAUCCCACCACAUGAUGAUUCCUGAAGAGCCUUGGUUUUUUG [A68G G113U]"
  Recorded Value: -4.53
- Seq: "GACCAAUCUGCCCUCAGAGCUCGAGAACAUCUUCGGAUGCAGAGGAGUCAGGCUUGGGUGGCGCGAUAGCGCCAACGUCGUCAACCUCCAAUGCAUCCCACCACAUGAUGAUGCCUGAAGAGCCUUGGUUUUUUG [G48U C56G C80G]"
  Recorded Value: -3.4
- Seq: "GACCAAUGUGCCCUCAGAGCUCGAGAACAUCUUCGGAUGCAGAGGAGGCAGGCUUCAGUGGCGCGAUAGCGCCAACGUCCACAACCUCCAAUGCAUCCCACCACAUGAUGAUGCCUGAAAAGCCUUGGUUUUUUG [C8G G57A U81A G120A]"
  Recorded Value: 0.685
- Seq: "GACCAAUCUGCCCUCAGAGCUCGAGAACAUCUUCGGAUGCAGAGGAGUCAGGCUUCGGUGGCGCGAUAGCGCCAACGUCCUCAACCUACACUGCAUCCCACCACAUGAUGAUGCCUGAAGAGCCUUGGUUUUUUG [G48U C88A A91C]"
  Recorded Value: -2.5
- Seq: "GACCAAUCUGCCCUCAGAGCUCGAGAACAUCUUCGGAUGCAGAGGAGGCAGGCUUCGGUGGCGCGAUAGCGCCAACGUCCUCAACCUCCAAUGCAUCCCACCACAUGAUGAUGACUGAAGAGUCUUGGUUUUUUG [C114A C123U]"
  Recorded Value: -3.16
- Seq: "GACCAAUCUGCCCUCAGAGCUAGAGAACAUCUUCGGAUGCAGAGGAGUUAGGCUUCGGUGGGGCGAUAACGCCAACGUCCUCAACCUCCAAUGCAUCCCACCACAUGGUGCUGCCUGAAGAGCCUUGGUUUUUUG [C22A G48U C49U C62G G69A A108G A111C]"
  Recorded Value: -6.98
- Seq: "GACCAAUCUGCCCUCAGGGCUCGAGAACAUCUUCGGAUGCAGAGGAGGCAGGCUUCGGUGGCGCGAUAACGCCAACGUCCUCAACCUGCAAUGCAUCCCACCACAUGAUGAUCCCUGAAGAGCCUUGGUUUUUUG [A18G G69A C88G G113C]"
  Recorded Value: -5.21
- Seq: "GACCAAUCUGCCCUCAGAGCUCGAGAACAUCUUCGGAUGCAGAGGAGGCAGGCUUCCGUGGCGCGAUAGCGCCAACGUCCUCGACCUCCAAUGCAUCCCACCACAUGAUGAUGCCGGAAGAGCCUUGGUUUUUUG [G57C A83G U116G]"
  Recorded Value: -2.83
- Seq: "GACCAAUCUGCCCUCAGAGAUCGAGAACAUCUUCGGAUGCAGAGGAGGCAGGCUUCGGUGGCGCGAUAGCGCCUACGUCCUCAACCUCCAAUGCAUCCCACCACAUGAUGAUGCCUGAAGAGCCUUGGUUUUUUG [C20A A74U]"
  Recorded Value: -3.01
- Seq: "GACCAAUCUGCCCUCAGAGCUCGAGAACAUCUUUGGAUGCAGAGGAGGCAGUCUUCGGUGGCGCGAUAGCGCCAACGUCCUCAACCGCCAAUGCAUCCCACCACAUGAUGAAGCCUGAAGAGCCUUGGUUUUUUC [C34U G52U U87G U112A G135C]"
  Recorded Value: -5.16
- Seq: "GAUCAAUCUGCCAUCAGAGCUCGAGAACUUCUUCGGAUGCAGACGAGGCAGGCUUCGGUGGCGCGAUAGCGCCAACGUCCUCAACCUCCAAUGCAUCCCACCACAUGAUGAUGCCUGAAGAGCGUUGGUUUCUUG [C3U C13A A29U G44C C124G U132C]"
  Recorded Value: -3.39
- Seq: "GACCAAUCUGCCCUCAGAGCUCGAGAACAUCUUCGGAUGCAGAGGAGGCAGGCUUCGGUGGCGCGAUAGCACCAACGUCCUCAACCUCCAAUGCAUCCCACCACAAGAUGAUGCCUGAAGAGCCUUGGUUUUUUG [G71A U106A]"
  Recorded Value: -0.841
- Seq: "GACCAAUCUGCCCUCAGAGUUCGAGAACAUCUUCGGAUGGAGAGGAGGCAGGCUUCGGUGGCGCGAUAGCGCCAACGUCCUCAACCUCCAAUGCAUCCCACCACAUGAUGAUGCCUGAAGAGCCUUGGUUUUUUG [C20U C40G]"
  Recorded Value: -2.17
- Seq: "GACCAAUCUGCCCUCAGAGCUCGAGAACAUCUUCGGAUGCAGAGGAGGCAGGGUUCGGUGGCGCGAUAGCGGCAACGUCCUCAACCUCCAAUGCAUCCCACCACAUGAUGAUGCCUCAAGAGCCUUGGUUUUUUG [C53G C72G G117C]"
  Recorded Value: -4.69
- Seq: "GACCAAUCUCCCCUCAGAGCUCGAGAACAUCUUCGGAUGCAAAGGAGGCAGGCUUCGGUGGCUCGAUAGCGCCAACGUCCUCAACCUCCACUGCAUCCCACCACAUGAUGAUACCUGAAGAUCCUUGGUUUUUUG [G10C G42A G63U A91C G113A G122U]"
  Recorded Value: -4.47
- Seq: "GACCAAUCUGCCCUCAGAGCUCGAGAACAUCUUCAGAUGCAGAGGAGGCAGGCUUCGGUGGUGCGAUAGCGCCAACGUCCUCAACCUCCAAUGCAUCCCACCACAUGAUGAUGCCUGAAGAGCCUUGGUUUUUUG [G35A C62U]"
  Recorded Value: -4.22
- Seq: "GACCAAUCUGCCCUCAGAGCUCGAGAACAUCUUCGGAUGCAGAGGAGGCAGGCUUCGGUGGCGCGAUAGCGCCAACGUCCUCAACCUCCAAUGCAGCCCACCACAUGAUGAUGCCUGAAGAGCCUUAGUUUUUUG [U96G G127A]"
  Recorded Value: -2.63
- Seq: "GACCAAUCUGCCCUCAGAGCUCGAGAACAUCUUCGGAUGCAGAGGAGGCAGGCUAAGGUGGCGCGAUAGCGCCAACGUCCUCAACCUCCAAUGCAUCCCACCACAUGAUGAUGCCUGAAGAGCCUUGGUUUUUUG [U55A C56A]"
  Recorded Value: -0.0197
- Seq: "GACCAAUCUGUCCUCAGAGCUCGAGAACAUCUUCGGAUGCAGAGGAGACAGGCUUCGGUGGCGCGAUAGCGCCAACGUCCUCAACCUCCAAUGCAUCCCACCACAUGAUGAUGCCUGAAGAGCCUUGGUUUUUUG [C11U G48A]"
  Recorded Value: -1.69
- Seq: "GACCAAUCGGCCCUCAGAGCUCGAGAACAUCUUCGGAUGCAGAGGAGGCAGGCUUCGGUGGCGCUAUAGCGCCAACGUCCUCAACCUCCAAUGCAUCCCACCACAUGAUGAUGCCUGAAGAGCCUUGGUUUUUUG [U9G G65U]"
  Recorded Value: -5.74
- Seq: "GACCAAUCUGCCCUCAGAGCUCGAGAACAUGUUCGGAUGCAGAGGAGGCAGGCUUCGGUGGCGCGAUAGCGCCAACGUCCUCAACCUCCAAUGCAUCCCACCACAUGAUGAUGCCUGAACAGCCUUGGUUUUUUG [C31G G120C]"
  Recorded Value: -5.91

Ref: the RNAGym collection of RNA variant scans (doi:10.1073/pnas.2313332121)
